Data provenance is patent US20220025056A1.

Biological target: T1, human ILT4 (LILRB2) on CHO cells (human, UniProt Q8N423 23-597)
T1 construct: also called CHO ILT4 cell line
T1 sequence (Q8N423 other isoform, or with tags, fused parts or gaps): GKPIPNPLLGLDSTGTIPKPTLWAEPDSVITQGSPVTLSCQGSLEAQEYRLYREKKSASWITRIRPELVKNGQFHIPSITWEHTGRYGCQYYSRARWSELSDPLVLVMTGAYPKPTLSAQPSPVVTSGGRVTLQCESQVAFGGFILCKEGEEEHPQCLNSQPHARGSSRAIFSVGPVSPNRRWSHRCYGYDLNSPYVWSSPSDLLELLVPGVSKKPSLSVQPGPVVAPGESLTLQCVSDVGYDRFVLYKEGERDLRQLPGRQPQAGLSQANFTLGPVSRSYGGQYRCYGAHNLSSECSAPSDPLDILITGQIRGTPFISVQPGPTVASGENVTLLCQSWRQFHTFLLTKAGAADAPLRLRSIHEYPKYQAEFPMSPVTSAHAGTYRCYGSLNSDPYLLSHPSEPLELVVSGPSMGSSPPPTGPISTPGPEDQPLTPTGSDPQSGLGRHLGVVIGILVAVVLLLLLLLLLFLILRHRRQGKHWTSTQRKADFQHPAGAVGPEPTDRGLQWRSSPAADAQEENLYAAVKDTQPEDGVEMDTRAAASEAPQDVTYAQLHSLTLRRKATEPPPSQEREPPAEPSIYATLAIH
Assay: flow cytometry, CHO transfectants

BINDER | binding result
18E1 (antibody, human IgG1, V domains shown) VH: QVQLQQSGAELVKPGASVRLSCKASGYTFTAHTIHWVKQRSGQGLEWIGWLYPGSGSIKYNEKFKDKATLTADKSSSTVYMELSRLTSEDSAVYFCARHTNWDFDYWGQGTTLTVSS VL: NIVLTQSPASLAVSLGQRATISCKASQSVDYGGASYMNWYQQKPGQPPKLLIYAASNLESGIPARFSGSGSGTDLTLNIHPVEEEDAAMYYCQQSNEEPWTFGGGTKLEIK | no binding
27H5 (antibody, human IgG1, V domains shown) VH: QVQLKESGPGLVAPSQSLSITCTVSGFSLTSYGVSWVRQPPGKGLEWLGVIWGDGNTNYHSALISRLSISKDNSKSQVFLKLNSLQTDDTATYYCARTNWDGWFAYWGQGTLVTVSA VL: DIVMTQSHKFMSTSVGDRVSITCKASQDVGTAVAWYQQKPGQSPKLLIYWASTRHTGVPDRFTGSGSGTDFTLTISNVQSEDLADYFCQQYRSYPLGTFGGGTKLEIK | no binding
27C10 (antibody, human IgG1, V domains shown) VH: EVQLQESGPGLVKPSQSLSLTCSVTGYSITSGYYWNWIRQFPENKLEWMGYIRYDGSNNYNPSLNNRISITRDASKNQFFLKLNSVTTEDTATYYCARGWLLWFYAVDYWGQGTSVTVSS VL: DVVMTQTPLSLPVSLGDQASISCRSSQSIVHTNGNTYLEWYLQKSGQSPKLLIYKVSNRLSGVPDRFSGSGSGTDFTLKISRVEAEDLGIYYCFQGSHVPWTFGGGTKLEIK | no binding
